# Measurement notes: Plasma pharmacokinetics after oral gavage
# Assay type: in vivo
# Condition notes: male, SD, rat, 1 mg/kg/day, 1mg/kg/day gavage, Week 4
# Description: […] Rats were treated with the designated dose by daily gavage. Acute plasma PK was conducted on day one and acute-on-chronic plasma PK was conducted on day 24. […] At the end of dialysis, the plasma and buffer level of IRX4204 were quantified by LC/MS/MS. The LC/MS system was comprised of Waters Acquity Ultra Performance Liquid Chromatography (UPLC) coupled to a XEVO-TQS (Waters). The samples were analyzed by reverse-phase HPLC using a Waters Atlantis T3 column (150 × 2.1mm, 5um). […]
Measured parameter: Cmax
Quick note: number first, unit second.

Prompt: Reported Cmax, compound CC(/C=C/[C@@H]1C[C@]1(C)c1ccc2c(c1)C(C)(C)CCC2(C)C)=C\C(=O)O [IRX4204] : ____
Response: 25.7 ng/mL

----------
# Measurement notes: Plasma pharmacokinetics after oral gavage
# Format: in vivo
# Condition notes: female, SD, rat, 3 mg/kg/day, Female, 3mg/kg/day gavage, Day 1
Measured parameter: Tmax (min)
Numbers only, in min.

Prompt: Reported Tmax, molecule CC(/C=C/[C@@H]1C[C@]1(C)c1ccc2c(c1)C(C)(C)CCC2(C)C)=C\C(=O)O : ____
Response: 30

----------
# Measurement notes: Plasma pharmacokinetics after oral gavage
# Type: in vivo
# Condition notes: female, SD, rat, 10 mg/kg/day, 10 mg/kg/day gavage, Week 4
Measured parameter: Tmax (min)
Numbers only, in min.

Prompt: Reported Tmax, molecule CC(/C=C/[C@@H]1C[C@]1(C)c1ccc2c(c1)C(C)(C)CCC2(C)C)=C\C(=O)O : ____
Response: 15

----------
# Measurement notes: Plasma pharmacokinetics after oral gavage
# Type: in vivo
# Condition notes: male, SD, rat, 1 mg/kg/day, 1mg/kg/day gavage, Week 4
# Description: […] Rats were treated with the designated dose by daily gavage. Acute plasma PK was conducted on day one and acute-on-chronic plasma PK was conducted on day 24. […] At the end of dialysis, the plasma and buffer level of IRX4204 were quantified by LC/MS/MS. The LC/MS system was comprised of Waters Acquity Ultra Performance Liquid Chromatography (UPLC) coupled to a XEVO-TQS (Waters). The samples were analyzed by reverse-phase HPLC using a Waters Atlantis T3 column (150 × 2.1mm, 5um). […]
Measured parameter: Tmax (min)
Answers are plain numbers, in min.

Prompt: Reported Tmax, compound CC(/C=C/[C@@H]1C[C@]1(C)c1ccc2c(c1)C(C)(C)CCC2(C)C)=C\C(=O)O [IRX4204] : ____
Response: 15

----------
# Measurement notes: Plasma pharmacokinetics after oral gavage
# Format: in vivo
# Condition notes: female, SD, rat, 10 mg/kg/day, Female, 10 mg/kg/day gavage, Day 1
Measured parameter: Cmax (ng/mL)
One number for each entry, in ng/mL.

Prompt: Reported Cmax, compound CC(/C=C/[C@@H]1C[C@]1(C)c1ccc2c(c1)C(C)(C)CCC2(C)C)=C\C(=O)O : ____
Response: 974

----------
# Measurement notes: Plasma pharmacokinetics after oral gavage
# Assay type: in vivo
# Condition notes: female, SD, rat, 1 mg/kg/day, Female, 1mg/kg/day gavage, Day 1, read-out: AUC0-24
Measured parameter: AUC(0-t) (ng·h/mL)
Give bare numbers, in ng·h/mL.

Prompt: Reported AUC(0-t), compound CC(/C=C/[C@@H]1C[C@]1(C)c1ccc2c(c1)C(C)(C)CCC2(C)C)=C\C(=O)O [IRX4204] : ____
Response: 251

----------
# Measurement notes: Plasma pharmacokinetics after oral gavage
# Type: in vivo
# Condition notes: male, SD, rat, 1 mg/kg/day, Male, 1mg/kg/day gavage, Day 1, read-out: AUC0-24
Measured parameter: AUC(0-t) (ng·h/mL)
Answers are plain numbers, in ng·h/mL.

Prompt: Reported AUC(0-t), compound CC(/C=C/[C@@H]1C[C@]1(C)c1ccc2c(c1)C(C)(C)CCC2(C)C)=C\C(=O)O [IRX4204] : ____
Response: 140

----------
# Measurement notes: Plasma pharmacokinetics after oral gavage
# Assay type: in vivo
# Condition notes: male, SD, rat, 10 mg/kg/day, Male, 10 mg/kg/day gavage, Day 1
Measured parameter: Tmax (min)
Answers are plain numbers, in min.

Prompt: Reported Tmax, molecule CC(/C=C/[C@@H]1C[C@]1(C)c1ccc2c(c1)C(C)(C)CCC2(C)C)=C\C(=O)O [IRX4204] : ____
Response: 15

----------
# Measurement notes: Plasma pharmacokinetics after oral gavage
# Assay type: in vivo
# Condition notes: female, SD, rat, 3 mg/kg/day, Female, 3mg/kg/day gavage, Week 4, read-out: AUC0-24
Measured parameter: AUC(0-t)
Quick note: number first, unit second.

Prompt: Reported AUC(0-t), molecule CC(/C=C/[C@@H]1C[C@]1(C)c1ccc2c(c1)C(C)(C)CCC2(C)C)=C\C(=O)O [IRX4204] : ____
Response: 344 ng·h/mL

----------
# Measurement notes: Plasma pharmacokinetics after oral gavage
# Format: in vivo
# Condition notes: male, SD, rat, 3 mg/kg/day, 3mg/kg/day gavage, Week 4
Measured parameter: Tmax (min)
One number for each entry, in min.

Prompt: Reported Tmax, molecule CC(/C=C/[C@@H]1C[C@]1(C)c1ccc2c(c1)C(C)(C)CCC2(C)C)=C\C(=O)O : ____
Response: 30

----------
# Measurement notes: IRX4204 content in the brain by LC/MS/MS
# Assay type: in vivo
# Condition notes: male, SD, oral, rat, 7 days repeated dosing 10 mg/kg/day gavage, one hour after the last dose
Measured parameter: concentration at 1 h

Prompt: Reported concentration at 1 h, molecule CC(/C=C/[C@@H]1C[C@]1(C)c1ccc2c(c1)C(C)(C)CCC2(C)C)=C\C(=O)O [IRX4204] : ____
Response: 11.5 nM

----------
# Measurement notes: Plasma pharmacokinetics after oral gavage
# Assay type: in vivo
# Condition notes: female, SD, rat, 1 mg/kg/day, Female, 1mg/kg/day gavage, Day 1
Measured parameter: Tmax (min)
Give bare numbers, in min.

Prompt: Reported Tmax, compound CC(/C=C/[C@@H]1C[C@]1(C)c1ccc2c(c1)C(C)(C)CCC2(C)C)=C\C(=O)O : ____
Response: 30

----------
# Measurement notes: Plasma pharmacokinetics after oral gavage
# Type: in vivo
# Condition notes: male, SD, rat, 3 mg/kg/day, Male, 3mg/kg/day gavage, Week 4, read-out: AUC0-24
Measured parameter: AUC(0-t) (µg·h/mL)
Numbers only, in µg·h/mL.

Prompt: Reported AUC(0-t), molecule CC(/C=C/[C@@H]1C[C@]1(C)c1ccc2c(c1)C(C)(C)CCC2(C)C)=C\C(=O)O [IRX4204] : ____
Response: 0.28

----------
# Measurement notes: Plasma pharmacokinetics after oral gavage
# Type: in vivo
# Condition notes: male, SD, rat, 1 mg/kg/day, Male, 1mg/kg/day gavage, Week 4, read-out: AUC0-24
Measured parameter: AUC(0-t) (ng·h/mL)
Give bare numbers, in ng·h/mL.

Prompt: Reported AUC(0-t), molecule CC(/C=C/[C@@H]1C[C@]1(C)c1ccc2c(c1)C(C)(C)CCC2(C)C)=C\C(=O)O [IRX4204] : ____
Response: 27.5

----------
# Measurement notes: Plasma pharmacokinetics after oral gavage
# Format: in vivo
# Condition notes: male, SD, rat, 10 mg/kg/day, 10 mg/kg/day gavage, Week 4
Measured parameter: Cmax (ng/mL)
Answers are plain numbers, in ng/mL.

Prompt: Reported Cmax, molecule CC(/C=C/[C@@H]1C[C@]1(C)c1ccc2c(c1)C(C)(C)CCC2(C)C)=C\C(=O)O : ____
Response: 77.2

----------
# Measurement notes: Plasma pharmacokinetics after oral gavage
# Assay type: in vivo
# Condition notes: female, SD, rat, 3 mg/kg/day, Female, 3mg/kg/day gavage, Day 1
Measured parameter: Cmax (ng/mL)
Answers are plain numbers, in ng/mL.

Prompt: Reported Cmax, compound CC(/C=C/[C@@H]1C[C@]1(C)c1ccc2c(c1)C(C)(C)CCC2(C)C)=C\C(=O)O : ____
Response: 362

----------
# Measurement notes: Plasma pharmacokinetics after oral gavage
# Type: in vivo
# Condition notes: female, SD, rat, 3 mg/kg/day, 3mg/kg/day gavage, Week 4
# Experimental: […] Rats were treated with the designated dose by daily gavage. Acute plasma PK was conducted on day one and acute-on-chronic plasma PK was conducted on day 24. […] At the end of dialysis, the plasma and buffer level of IRX4204 were quantified by LC/MS/MS. The LC/MS system was comprised of Waters Acquity Ultra Performance Liquid Chromatography (UPLC) coupled to a XEVO-TQS (Waters). The samples were analyzed by reverse-phase HPLC using a Waters Atlantis T3 column (150 × 2.1mm, 5um). […]
Measured parameter: Tmax (h)
Give bare numbers, in h.

Prompt: Reported Tmax, compound CC(/C=C/[C@@H]1C[C@]1(C)c1ccc2c(c1)C(C)(C)CCC2(C)C)=C\C(=O)O : ____
Response: 1
